# System: NB1
# ASSAY_INFO: Cytotoxicity against human NB-1 cells after 3 days by MTT assay
# Type: functional, cell-based
# DETAILS: NB1, 72 h
MEASUREMENT_LABEL: pIC50
When answering, recall that pIC50 equals minus log10 of the concentration in mol/L, and write that number alone.

Worked set:
1) N#Cc1c(Nc2ccncc2)nc(SCc2nc3ccccc3[nH]2)nc1-c1ccccc1	8.17
2) N#Cc1c(-c2ccccc2)nc(SCc2nc3ccccc3[nH]2)nc1N1CCN(C(=O)c2ccc([N+](=O)[O-])cc2)CC1	7.88
3) N#Cc1c(-c2ccccc2)nc(SCc2nc3ccccc3[nH]2)nc1N1CCNCC1	8.17
4) N#Cc1c(NNC(N)=S)nc(SCc2nc3ccccc3[nH]2)nc1-c1ccccc1	8.24
5) Cl.N=c1[nH]c(=O)[nH]c2nc(SCc3nc4ccccc4[nH]3)nc(-c3ccccc3)c12	7.95

Given the compound `CNc1nc(SCc2nc3ccccc3[nH]2)nc(-c2ccccc2)c1C#N` and test system NB1, the measured pIC50 is 8.35

Given the compound `Cl.N=c1[nH]c(=S)[nH]c2nc(SCc3nc4ccccc4[nH]3)nc(-c3ccccc3)c12` and test system NB1, the measured pIC50 is 8.48

Given the compound `N#Cc1c(NC(N)=O)nc(SCc2nc3ccccc3[nH]2)nc1-c1ccccc1` and test system NB1, the measured pIC50 is 8.13

Given the compound `N#Cc1c(Nc2ccccn2)nc(SCc2nc3ccccc3[nH]2)nc1-c1ccccc1` and test system NB1, the measured pIC50 is 8.41

Given the compound `N#Cc1c(Nc2nccs2)nc(SCc2nc3ccccc3[nH]2)nc1-c1ccccc1` and test system NB1, the measured pIC50 is 8.49

Given the compound `N#Cc1c(-c2ccccc2)nc(SCc2nc3ccccc3[nH]2)nc1N1CCN(S(=O)(=O)c2ccccc2[N+](=O)[O-])CC1` and test system NB1, the measured pIC50 is 8.60

====

# Tested on: SF-268
# ASSAY_INFO: Cytotoxicity against human SF268 cells after 3 days by MTT assay
# Format: functional, cell-based
# DETAILS: SF-268, 72 h
MEASUREMENT_LABEL: log10(IC50) (log10 of the value in nM)
// units: nM (pre-log); metric: IC50; scale: log10

Worked set:
1) N#Cc1c(NC(N)=O)nc(SCc2nc3ccccc3[nH]2)nc1-c1ccccc1	0.53
2) N#Cc1c(NNC(N)=S)nc(SCc2nc3ccccc3[nH]2)nc1-c1ccccc1	0.53
3) N#Cc1c(Nc2nccs2)nc(SCc2nc3ccccc3[nH]2)nc1-c1ccccc1	0.41
4) CN1CCN(c2nc(SCc3nc4ccccc4[nH]3)nc(-c3ccccc3)c2C#N)CC1	0.84
5) N#Cc1c(-c2ccccc2)nc(SCc2nc3ccccc3[nH]2)nc1N1CCN(S(=O)(=O)c2ccccc2)CC1	0.46

Data point: `N#Cc1c(Nc2ccccn2)nc(SCc2nc3ccccc3[nH]2)nc1-c1ccccc1` ; log10(IC50) = 0.83

Data point: `N#Cc1c(-c2ccccc2)nc(SCc2nc3ccccc3[nH]2)nc1N1CCN(C(=O)c2ccc([N+](=O)[O-])cc2)CC1` ; log10(IC50) = 0.76

Data point: `Cl.N=c1[nH]c(=S)[nH]c2nc(SCc3nc4ccccc4[nH]3)nc(-c3ccccc3)c12` ; log10(IC50) = 0.54

Data point: `Cc1ccc(S(=O)(=O)N2CCN(c3nc(SCc4nc5ccccc5[nH]4)nc(-c4ccccc4)c3C#N)CC2)cc1` ; log10(IC50) = 0.89

Where do these numbers come from? They come from ChEMBL document CHEMBL1165908.
